target system: PRKCA (human) (UniProt P17252)
assay explanation: radiometric filter-binding kinase assay
settings: compound 10.0 µM; ATP 100 µM
Please use 1 whenever residual activity is not below 90%, and -1 whenever it is.

Query: Quick check: does `O=C1c2ccccc2-c2n[nH]c3cccc1c23` have residual activity greater than or equal to 90%?
Response: -1

Query: Quick check: does `O=C1Cc2c([nH]c3ccc(Br)cc23)-c2ccccc2N1` have residual activity greater than or equal to 90%?
Response: 1

Query: Quick check: does `CC[C@@H](CO)Nc1nc(NCc2ccccc2)c2ncn(C(C)C)c2n1` have residual activity greater than or equal to 90%?
Response: 1

Query: Quick check: does `O=C1Cc2c([nH]c3ccc([N+](=O)[O-])cc23)-c2ccccc2N1` have residual activity greater than or equal to 90%?
Response: 1
